target.of.assay: CD28 (human) (UniProt P10747)
procedure.summary: flow cytometry, Jurkat cells (CD28)
Parameter Fold change to WT: see the listing below.

| binder | Fold change to WT [fold] |
| --- | --- |
| CD80 variant V22A/E23D/Q33L/E35D/M47V IgV-Fc (Fc fusion) VIHVTKEVKEVATLSCGHNVSADELAQTRIYWLKDKKMVLTMMSGDVNIWPEYKNRTIFDITNNLSIVILALRPSDEGTYECVVLKYEKDAFKREHLAEVT | 0.04 |
| CD80 variant Q33L/E35D/M47I IgV-Fc (Fc fusion) VIHVTKEVKEVATLSCGHNVSVEELAQTRIYWLKDKKMVLTMMSGDINIWPEYKNRTIFDITNNLSIVILALRPSDEGTYECVVLKYEKDAFKREHLAEVT | 0.04 |
| CD80 variant Q27H/Q33L/E35D/M47V/N55D/L85Q/K89N IgV-Fc (Fc fusion) VIHVTKEVKEVATLSCGHNVSVEELAHTRIYWLKDKKMVLTMMSGDVNIWPEYKDRTIFDITNNLSIVILALRPSDEGTYECVVQKYENDAFKREHLAEVT | 0.04 |
| CD80 variant H18L/V22A/E35D/M47L/N48T/L85Q IgV-Fc (Fc fusion) VIHVTKEVKEVATLSCGLNVSAEELAQTRIYWQKDKKMVLTMMSGDLTIWPEYKNRTIFDITNNLSIVILALRPSDEGTYECVVQKYEKDAFKREHLAEVT | 0.06 |
| CD80 variant Q33L/E35D/M47I/L85Q IgV-Fc (Fc fusion) VIHVTKEVKEVATLSCGHNVSVEELAQTRIYWLKDKKMVLTMMSGDINIWPEYKNRTIFDITNNLSIVILALRPSDEGTYECVVQKYEKDAFKREHLAEVT | 0.04 |
| CD80 variant Q33L/E35D/T41S/M43I IgV-Fc (Fc fusion) VIHVTKEVKEVATLSCGHNVSVEELAQTRIYWLKDKKMVLSMISGDMNIWPEYKNRTIFDITNNLSIVILALRPSDEGTYECVVLKYEKDAFKREHLAEVT | 0.06 |
| CD80 variant H18Y/E35D/M47L IgV-Fc (Fc fusion) VIHVTKEVKEVATLSCGYNVSVEELAQTRIYWQKDKKMVLTMMSGDLNIWPEYKNRTIFDITNNLSIVILALRPSDEGTYECVVLKYEKDAFKREHLAEVT | 0.66 |
| CD80 variant A26E/Q33R/E35D/M47L/L85Q/K86E IgV-Fc (Fc fusion) VIHVTKEVKEVATLSCGHNVSVEELEQTRIYWRKDKKMVLTMMSGDLNIWPEYKNRTIFDITNNLSIVILALRPSDEGTYECVVQEYEKDAFKREHLAEVT | 0.04 |
| CD80 variant H18Y/Q33L/E35D/M47I IgV-Fc (Fc fusion) VIHVTKEVKEVATLSCGYNVSVEELAQTRIYWLKDKKMVLTMMSGDINIWPEYKNRTIFDITNNLSIVILALRPSDEGTYECVVLKYEKDAFKREHLAEVT | 0.04 |
